Test: self-splicing fitness, log relative to wild type (ln ratio); higher = more splicing; Tetrahymena group I intron in knt gene, E. coli kanamycin selection, DiMSum; sequences stand for … in CUCUCU…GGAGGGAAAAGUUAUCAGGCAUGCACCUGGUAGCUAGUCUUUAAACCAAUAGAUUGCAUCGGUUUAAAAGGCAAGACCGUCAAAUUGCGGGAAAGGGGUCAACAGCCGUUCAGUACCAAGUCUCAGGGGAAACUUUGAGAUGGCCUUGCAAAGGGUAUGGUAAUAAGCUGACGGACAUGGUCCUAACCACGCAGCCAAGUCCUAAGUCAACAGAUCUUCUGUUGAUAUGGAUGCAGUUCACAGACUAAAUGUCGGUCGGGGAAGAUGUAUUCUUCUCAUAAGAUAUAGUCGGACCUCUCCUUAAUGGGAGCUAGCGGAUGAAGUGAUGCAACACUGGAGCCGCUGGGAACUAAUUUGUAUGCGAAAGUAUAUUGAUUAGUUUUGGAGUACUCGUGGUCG;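 note: selection with 25 µg/mL kanamycin versus none on LB agar overnight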
Conditions: 37 °C
measured attribute: self-splicing fitness (ln)

INSERT INTO assay_data (residue_string, meas_value) VALUES
  ('CAGUAGCAAUAUUACGCGAU', -2.67),
  ('GUCGAGCAAUAUUACGUCGA', -2.65),
  ('UAUUAGCAAUAUUACGACAU', -0.705),
  ('GCCAAGCAAUAUUACGUAGA', -1.26),
  ('GGGAAGCAAUAUUACGCAAG', -1.14),
  ('AUCAAGCAAUAUUACGUGCA', -0.556),
  ('UUGAAGCAAUAUUACGACUC', -0.526),
  ('ACAGAGCAAUAUUACGGGAA', -2.98),
  ('GACGAGCAAUAUUACGUAGU', -1.88),
  ('UCACAGCAAUAUUACGUGGG', -2.68),
  ('UAUUAGCAAUAUUACGCUUG', -0.336),
  ('ACGUAGCAAUAUUACGUACU', -2),
  ('UCAUAGCAAUAUUACGCUUC', -2.26),
  ('UGCGAGCAAUAUUACGAUCG', -1.38),
  ('CGUAAGCAAUAUUACGAUUC', -2.52),
  ('GACUAGCAAUAUUACGGUGC', -1.73);
